Entries with their measured pIC50, system Choline O-acetyltransferase (Homo sapiens, UniProt P28329):
Recall that pIC50 is obtained by taking minus log10 of the concentration measured in molar.

| Molecule smiles | Quantity kind | Reported measurement |
| --- | --- | --- |
| Cc1c[n+](C)ccc1/C=C/c1ccccc1 | pIC50 | 5.30 |
| C[n+]1ccc(/C=C/c2ccccc2)cc1 | pIC50 | 4.87 |

Below: the item to evaluate.
Q: Quick one: give measured pIC50 for "CCc1c[n+](C)ccc1/C=C/c1ccccc1"
A: 4.72

---

pIC50: −log10 of the molar value.
Entries with their measured pIC50, system Choline O-acetyltransferase (Homo sapiens, UniProt P28329):

Recorded pIC50, per entry:
| Molecule smiles | Quantity kind | Reported measurement |
| --- | --- | --- |
| C/C(=C\c1ccccc1)c1cc[n+](C)cc1 | pIC50 | < 4.00 |
| COc1ccc(/C=C/c2cc[n+](C)cc2)c2ccccc12 | pIC50 | < 4.00 |

Q: Provide the reported pIC50 (system: Choline O-acetyltransferase (Homo sapiens, UniProt P28329)) for "C[n+]1ccc(/C=C/c2cc3ccccc3c3ccccc23)cc1"
A: < 4.00
